These entries and their values trace back to patent US20190233498A1.

# target: T1, human PACAP27 (human, C-terminal leucine is amidated; 125I-labelled in Example 10)
# T1 peptide: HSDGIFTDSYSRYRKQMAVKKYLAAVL
# testSummary: SPR, Ab immobilised
Give measured koff for each item. Keep answers brief.
Give bare numbers, in s⁻¹.

Query block: Would you mind telling me what koff value was observed for anti-PACAP antibody Ab9 (antibody, human IgG1, kappa, N297A, V domains shown, full-length rabbit/human chimeric antibody) VH: EQSGGGAEGGLVKPGGSLKLSCKASGFTISRDYWICWVRQAPGKGLEWIGCISAGGGSTDYANWVNGRFTLSRDIDQSTGCLQLNSLTDADTAMYYCAGNLEIWGQGTLVTVSS VL: AQVLTQTPSSVSAAVGGTVTINCQSSPSIYSGAFLSWFQQKPGQPPKFLIYEASKLASGVPSRFSGSGSGTQFTLTISDVQCDDAATYYCLGFYDCSSVDCHAFGGGTEVVVKR ?
Result block: 0.00032

Query block: Would you mind telling me what koff value was observed for anti-PACAP antibody Ab12.H (antibody, human IgG1, kappa, N297A, V domains shown, humanized form of Ab12, full length) VH: EVQLVESGGGLVQPGGSLRLSCAASGFSLSSYAMGWVRQAPGKGLEWIGDISTYGTTDYASWVYGRFTISRDNSKNTVYLQMNSLRAEDTAVYFCARDYWLSLWGQGTLVTVSS VL: AAQLTQSPSTLSASVGDRVTITCQSSQSVYDNNALAWYQQKPGKAPKLLIYAASTLASGVPSRFSGSGSGTEFTLTISSLQPDDFATYYCLGGYYDPADNAFGGGTKVEIKR ?
Result block: 7.9e-05

Please find the next binder below.
Query block: Would you mind telling me what koff value was observed for anti-PACAP antibody Ab19 (antibody, human IgG1, kappa, N297A, V domains shown, full-length rabbit/human chimeric antibody) VH: QSVEASGGRLVTPGTPLTLTCTVSGFSLSSATMNWVRQAPGKGLEWIGLIGGNDERYYASWAKGRFTISKTSSTTVDLKMTSPTTEDTATYFCARGGGEFFIWGPGTLVTVSS VL: AQVLTQTPSSVSAAVGGTVTINCQSSESVYTNDRLSWYQQKPGQPPKLLIYEASKLASGVPPRFSGSGSGTQFTLTISDLECDDAATYYCAGAYSTSIHGFGGGTEVVVKR ?
Result block: 0.00013
